Tested on: SK-MEL-28 melanoma
Test: NCI-60 one-dose screen, 48 h (100 = growth as untreated, 0 = no growth, -100 = all killed)
Conditions: 10 µM unless noted
This is part of a sample that, as a whole, favours compounds with a hit. Of some 83,000 tested, about 20% had one in any assay.
ENDPOINT: growth (%)
Numbers only here, please. The scale is %.

Lookup: Form field: reported growth of NS(=O)(=O)c1ccc(CCn2c(-c3ccc(C(=O)O)cc3)nc(-c3ccccc3)c2-c2ccccc2)cc1
Found: 102

Lookup: CN1CCN(CCCCCC(=O)Nc2nc(-c3cccc(NS(=O)(=O)c4cccc5c(N(C)C)cccc45)c3)cs2)CC1 ?
Found: -61.1

Lookup: Request: Nc1nc(=O)n([C@H]2C[C@H](O)[C@@H](CO)O2)cc1C=O
Found: 108

Lookup: And O=c1[nH][nH]c(-c2ccc(F)cc2)c1-c1nc2ccccc2s1 ?
Found: 97.7

Lookup: Same lookup for O=C(/C=C/Nc1ccc(S(=O)(=O)Nc2ncccn2)cc1)c1ccc(N=Cc2c(O)[nH]c3ccccc23)cc1 , please.
Found: 118

Lookup: Another compound to check: C#Cc1nc(/C=C/C(=O)NO)cs1
Found: 60.9

Lookup: // repeat for Cc1ccc2c(n1)C(=O)C(Cl)=C(Nc1cccc(C(F)(F)F)c1)C2=O and report
Found: 78.5

Lookup: Follow-up item: C[C@@H]1OCC2(CCN(c3cnc(C(=O)Nc4cc(F)cc5cccnc45)cn3)CC2)[C@@H]1N
Found: 70

Lookup: What about CCOC(=O)C1=C(C)NC(C)=C(C(=O)OC(C)C)C1c1cccc(C#N)c1 (stereo not given) ?
Found: 105

Lookup: Entry CNCCN(C)c1ccc(Nc2cc(NC3CC3)n3ncc(C#N)c3n2)cc1NC(C)=O please
Found: 13

Lookup: O=C(CCCCCCNC(=O)C(O)(O)C(F)(F)F)Nc1ccc(-c2ccccc2)cc1 , same question.
Found: 5.07

Lookup: Repeat with C#CCOc1cccc(/C(N)=N/C(N)=N/c2nc3ccccc3s2)c1
Found: 115

Lookup: And then O=C1Nc2ccc(F)cc2/C1=C\C(=O)c1ccc(NS(=O)(=O)c2ccccc2)cc1 , what is it?
Found: 105

Lookup: And the next one, CN1CCN(c2ccc(Nc3nc(NCCCNS(=O)(=O)c4cccc5ccccc45)c4sccc4n3)cc2)CC1 ?
Found: -80.9

Lookup: What do you have for CCOP(=O)(OCC)OC[C@]12CCC(C)(C)CC1C1=CC[C@@H]3[C@@]4(C)CCCNC(C)(C)[C@@H]4CC[C@@]3(C)[C@]1(C)CC2 (stereo not given in full) ?
Found: 101

Lookup: Check O=C(CSc1nnc(-c2ccc(Cl)cc2)n1-c1ccccc1)Nc1ccc(Cl)cc1 too.
Found: 71.2

Lookup: And then Cc1ccc(C(=O)CSc2nc3ccccc3c(=O)n2C)cc1 , what is it?
Found: 101

Lookup: Likewise for CCCC[n+]1ccc(SCC(=O)n2ccc3ccccc32)c2ccccc21 ?
Found: 109

Lookup: Try the compound O=C(Nc1cccc(Cl)c1)Nc1nc2cc([N+](=O)[O-])ccc2o1
Found: 36.2

Lookup: How about this compound: C=C(C)[C@@H]1CC[C@]2(C(=O)NC3CCCCC3)CC[C@]3(C)[C@H](CC[C@@H]4[C@@]5(C)CC[C@H](N)C(C)(C)[C@@H]5CC[C@]43C)[C@@H]12
Found: 109

---

I'd appreciate it if you could supply growth values for the items below.
Tested on: CCRF-CEM leukemia
Test: NCI-60 one-dose screen, 48 h (100 = growth as untreated, 0 = no growth, -100 = all killed)
Settings: 10 µM unless noted
About 83,000 compounds went through this panel and 20% of them were active in at least one assay; those are over-represented in the sample as a whole.
Provide the reading as a plain figure in %.

Lookup: Query: growth; subject: CC1=Cc2ccccc2OC12C=Cc1ccccc1O2 (centres undefined)
Found: 105

Lookup: Field entry: COC(=O)CNC(=O)c1cccc(-c2cc(=O)c3c(OC)c(OC)c(OC)cc3o2)c1
Found: 91.3

Lookup: Param item: COc1ccc(/C=N/NC(=O)CSc2nc(-c3cnccn3)cc(-c3cccs3)c2C#N)cc1OC
Found: 93.9

Lookup: # iterate: Cc1ccc2c(n1)C(=O)C(Cl)=C(Nc1ccc(C(C)C)cc1)C2=O
Found: 3.85

Lookup: Then what about the compound C[C@]12CC[C@H]3[C@@H](CC=C4C[C@@H](O)CC[C@@]43C)[C@@H]1CC[C@@H]2[C@](C)(O)CCc1cccnc1 ?
Found: 59.8

Lookup: Param item: OCC(Nc1ncnc2ccc(-c3cnc4cnccn34)cc12)c1ccccc1 (centres undefined)
Found: 80.5

Lookup: Cool, now CCCCCCNC(=O)Oc1ccc(/C(=C(/C)c2ccc(OC)cc2)c2ccc(OCCN3CCCCCC3)cc2)cc1
Found: 12.4

Lookup: Same question for O=c1c2ccccc2cc2n1CCN=C2c1ccccc1 please.
Found: 100

Lookup: Then this compound: COc1cc2cc(Oc3ccc(NC(=O)c4cc(C(F)(F)F)cc(C(F)(F)F)c4)cc3)c(C)nc2cc1OCCN1CCOCC1
Found: 45

---

Test system: MDA-MB-435 melanoma
Assay: NCI-60 one-dose screen, 48 h (100 = growth as untreated, 0 = no growth, -100 = all killed)
Conditions: 10 µM unless noted
About 83,000 compounds went through this panel and 20% of them were active in at least one assay; those are over-represented in the sample as a whole.
ENDPOINT: growth (%)
Please reply with the bare figure in % and do not write the unit itself.

Lookup: Test system MDA-MB-435 melanoma; read-out growth; what value for NC(N)=NS(=O)(=O)c1ccc(N=Nc2c(N)nn(-c3ccc([N+](=O)[O-])cc3[N+](=O)[O-])c2N)cc1 ?
Found: 103

Lookup: Another molecule to look at: CC(=O)OCCCCN1C=C/C(=C\C(=O)n2ccc3ccccc32)c2ccccc21
Found: 106

Lookup: Next molecule: CCOC(=O)c1cccc(NC2=C(Cl)C(=O)c3nc(C)ccc3C2=O)c1
Found: 108

Lookup: One more molecule: Cc1ccc(-c2csc(N/N=C/c3cccs3)n2)cc1
Found: 98

Lookup: Record: CCS(=O)(=O)Nc1ccc(C(=O)CC2(O)C(=O)Nc3ccccc32)cc1 (stereo not given)
Found: 108

---

Test system: UACC-62 melanoma
Experiment: NCI-60 one-dose screen, 48 h
Details: 10 µM unless noted
This is part of a sample that, as a whole, favours compounds with a hit. Of some 83,000 tested, about 20% had one in any assay. Calls of active or inactive are those of the source. Rule for the calls: active = growth percent below 10; inactive = the rest.
One label from this list, please: active, inactive

Lookup: Fill in: this test's call for Cc1ccc2c(n1)C(=O)C(Cl)=C(Nc1cccc(C(F)(F)F)c1)C2=O is ___
Found: inactive

Lookup: Let us now turn to COc1ccc(-c2cc(-c3ccc(N(C)C)cc3)n3c(n2)nc2ccccc23)cc1
Found: inactive

Lookup: Okay, and O=C(COc1ccc(/C=C2\C(=O)Nc3ccc(Cl)cc32)cc1)Nc1ccc(Cl)cc1 ?
Found: inactive

Lookup: Try this compound too: CCOC(=O)c1c(NC(=O)c2ccc(C(F)(F)F)cc2)sc2c3c(ccc12)OCN(C)C3
Found: inactive

Lookup: Also need CC(C)(C)OC(=O)NCc1ccc(CNc2c([N+](=O)[O-])cnc3ccccc23)cc1 , thanks.
Found: inactive

Lookup: Here is the next compound: CC1(C)CC[C@]2(C(=O)O)CC[C@]3(C)C(=CC[C@@H]4[C@@]5(C)CC[C@H](NOCCCN)C(C)(C)[C@@H]5CC[C@]43C)[C@@H]2C1
Found: inactive

Lookup: Same thing, different compound: O=C1CSC(c2cn(-c3ccccc3)nc2-c2ccc(Cl)cc2)N1c1ccccc1 (centres undefined)
Found: inactive

Lookup: And the next one, COc1ccccc1N1CCN(C2=C(Cl)C(=O)c3ncccc3C2=O)CC1 ?
Found: inactive

Lookup: Request: CCCc1[nH]c(-c2cc(N)ccc2Cl)c2c1C(=O)CCCC2
Found: inactive

Lookup: Subsequent entry: O=S(=O)(NCCCNc1nccc(-c2[nH]c(-c3ccccc3)nc2-c2ccc(F)c(O)c2)n1)c1cccc(F)c1
Found: inactive

Lookup: Then this compound: O=C1Nc2ccccc2/C1=C/c1ccc(OCC(=O)c2ccccc2)cc1
Found: inactive

Lookup: Then this compound: N#Cc1c(-c2cccs2)cc(-c2cnccn2)nc1SCC(=O)N/N=C/c1cccs1
Found: inactive

Lookup: What about this compound? CCN(CC)S(=O)(=O)c1ccc(-c2nc(C(Cl)Cl)nc3cc(-c4ccc(F)cc4)nn23)cc1
Found: inactive

Lookup: Another compound: O=C(COc1ccc(/C=C2\C(=O)Nc3cc(Cl)ccc32)cc1)Nc1ccc(Cl)cc1
Found: inactive

Lookup: Another compound to look at: CC(Nc1c(C#N)cnc2ccc(-c3cncc(-c4n[nH]c(=O)o4)c3)cc12)c1ccccc1 (centres undefined)
Found: active

Lookup: Proceed to CN(C)CCCOc1ccc(C(=C(c2ccccc2)C2CCCC2)c2ccc(OCCCN(C)C)cc2)cc1
Found: active

Lookup: Now try CC(Nc1ncnc2ccc(-c3cnc(N)nc3)cc12)c1ccccc1 (centres undefined) .
Found: inactive

Lookup: Another compound to look at: CCOC(=O)c1cnc2c(-c3ccc(Cl)c(Cl)c3)cnn2c1
Found: inactive

Lookup: Do the same for Cc1ccc(Nc2nc(SC(C)C)nc(-c3ccccc3)c2C#N)cc1 please
Found: inactive
